Could you please report measured pEC50 for the items listed next?
Molecular target: Beta-1 adrenergic receptor (Homo sapiens)
Sequence (P08588 whole entry): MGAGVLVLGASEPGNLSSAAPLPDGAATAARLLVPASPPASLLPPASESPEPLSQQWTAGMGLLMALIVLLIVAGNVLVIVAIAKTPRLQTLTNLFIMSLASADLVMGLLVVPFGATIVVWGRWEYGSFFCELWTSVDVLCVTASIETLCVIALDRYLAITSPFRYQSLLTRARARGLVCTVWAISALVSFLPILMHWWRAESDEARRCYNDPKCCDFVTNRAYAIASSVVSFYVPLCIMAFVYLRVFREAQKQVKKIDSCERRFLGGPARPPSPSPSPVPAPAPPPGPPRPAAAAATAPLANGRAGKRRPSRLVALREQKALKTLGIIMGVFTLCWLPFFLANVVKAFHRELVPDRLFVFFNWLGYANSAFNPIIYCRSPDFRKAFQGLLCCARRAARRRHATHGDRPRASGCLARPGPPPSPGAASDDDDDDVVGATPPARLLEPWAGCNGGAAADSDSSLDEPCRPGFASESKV
Experiment: Agonist activity at human beta1-adrenergic receptor expressed in CHO-K1 cells co-expressing CRE-SPAP reporter gene assessed as CRE-SPAP production measured after 5 hrs incubation
# log scale: pEC50 equals minus log10 of the concentration in mol/L

# input Field request: pEC50 | item: O[C@@H](CNCC1COc2ccccc2O1)COc1cccc2cnccc12 (some centres undefined)
# output 7.13

# input Field request: pEC50 | item: `CCc1ccccc1OC[C@@H](O)CNCCC(c1ccccc1)c1ccccc1`
# output 6.51

# input Field request: pEC50 | item: `CC(=O)NCc1cccc(OC[C@@H](O)CNCCc2ccc(NS(=O)(=O)c3ccccc3)cc2)c1`
# output 6.42

# input Field request: pEC50 | item: O[C@@H](CNCC1COc2ccccc2O1)COc1ccc2c(c1)OCO2 (some centres undefined)
# output 6.50
